Values compiled from the supplement of paper PMC12632987.

# System tested: T1, USP38, Q8NB14
# T1 chain: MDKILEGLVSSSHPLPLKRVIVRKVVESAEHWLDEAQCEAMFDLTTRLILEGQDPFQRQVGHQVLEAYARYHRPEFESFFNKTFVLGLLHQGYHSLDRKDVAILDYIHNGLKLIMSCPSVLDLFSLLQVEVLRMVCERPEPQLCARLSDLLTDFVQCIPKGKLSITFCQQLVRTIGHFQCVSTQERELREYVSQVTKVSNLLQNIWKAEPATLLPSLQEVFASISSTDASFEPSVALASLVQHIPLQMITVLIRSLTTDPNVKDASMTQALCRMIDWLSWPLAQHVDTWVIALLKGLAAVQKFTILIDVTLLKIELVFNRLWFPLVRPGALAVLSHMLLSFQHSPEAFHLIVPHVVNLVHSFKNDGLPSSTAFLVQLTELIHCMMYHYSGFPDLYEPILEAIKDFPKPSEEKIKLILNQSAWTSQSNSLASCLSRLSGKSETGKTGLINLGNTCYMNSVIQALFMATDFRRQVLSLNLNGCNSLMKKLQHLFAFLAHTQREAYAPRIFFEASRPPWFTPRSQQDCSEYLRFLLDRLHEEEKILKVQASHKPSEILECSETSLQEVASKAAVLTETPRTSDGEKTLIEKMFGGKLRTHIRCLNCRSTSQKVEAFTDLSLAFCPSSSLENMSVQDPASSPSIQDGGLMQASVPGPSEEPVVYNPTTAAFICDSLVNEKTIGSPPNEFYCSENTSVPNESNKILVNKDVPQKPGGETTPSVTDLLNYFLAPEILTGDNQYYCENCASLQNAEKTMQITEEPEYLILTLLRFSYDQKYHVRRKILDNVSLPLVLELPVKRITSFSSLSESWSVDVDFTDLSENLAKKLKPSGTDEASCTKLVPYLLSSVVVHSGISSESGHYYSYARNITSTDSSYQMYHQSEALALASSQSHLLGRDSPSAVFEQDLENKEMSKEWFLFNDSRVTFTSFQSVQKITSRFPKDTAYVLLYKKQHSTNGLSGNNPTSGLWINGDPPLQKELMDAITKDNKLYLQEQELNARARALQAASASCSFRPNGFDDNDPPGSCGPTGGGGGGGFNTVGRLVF
# Assay notes: median log2 fold change of GCK-ALFA target abundance (FLAG IP / Myc IP barcode read proportion) (log2 ratio); each designed protein is fused to an ALFA-tag nanobody in HEK293 cells to bring the named protein to FLAG-tagged glucokinase (GCK); Myc marks an untargeted standard; higher = target protein stabilised (more abundant)
# Condition context: target protein: 3xFLAG-MCP-GCK-ALFA reporter; HEK293 landing pad (RPLP)
Use median log2 fold change to assign classes; range list: lower segment (below -0.08), middle segment (-0.08 to below 0.04), upper segment (0.04 or more)

1) usp_38_diff_out_18_28_426 (protein) MLEENKKKIEKAKEEADKLIDEANKVATEGFLKYSENPENEELLKKINELWDAVGKAAQAVNDMRENIEDEEAVEKNLKKFEEAKKEAEKLIEELKKLIE; middle segment
2) usp_38_diff_out_18_28_398 (protein) SAAERAELEAELAALQKELDALITEATAAATAALTAHPDSAEVWALVDALFDHLGAAAAALREARRLLREGGPLEEVRAALAAAQAHLAEARALLAELKA; middle segment
3) usp_38_diff_out_18_14_287 (protein) SEEEAEALKSALEILRGDVDAYTERVIRLLEQAAGDPERVRRIHERARRNLAGVRAYAEEVLKRAEEAGDEETKKAAEELLRRVAEAEARIAARYAEVTA; lower segment
4) usp_38_diff_out_17_60_248 (protein) SAEAEAIIARLEARLEELERRLEELERRFEEAERRGDKAELEELLKELDELLGEIADLLVELAKNSELIDPETFLRLADRASELADRAFALRQRVQQALA; lower segment
5) usp_38_diff_out_16_109_179 (protein) SAQAEADRAFAEAAIANFEALAADAEAELARLKARGASPEVLAAYQALADTARAAAAALRAALAAGEDLRAATNAKWDEVGAKAAEAAELRRAEVRRRSA; middle segment
6) usp_38_diff_out_18_14_314 (protein) SEELEEAELSALKTLTADVEADTARKIELLEKAKDDPERVKRIYDRALRDLAGVRTYAEEVLKRAKERGNEELLAAAEALLATVDAAEARLTAKYEEVMK; upper segment

Lab note: sort usp_38_diff_out_17_125_219 (protein) SDADLEAEAKALLAEAKALLKEAEKLLKEGAPFEEIRKKLDAAADKLGQLAVTLQQLRDKSKDKAQAAKFIKEMTAEANKLIDEYTKLATEAFLREAEEA into the matching median log2 fold change band.
middle segment
